B1: CAMK2B (parent)
chain: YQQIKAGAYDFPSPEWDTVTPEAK

Variants of: B1
Protocol description: protein stability index of a GFP-peptide fusion (GPS, HEK-293T) (PSI 1-6); higher = more stable;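 note: lentivirally expressed fusions sorted by FACS into six bins by GFP to DsRed ratio, PSI derived from sequencing read proportions per bin multiplied by bin number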
Conditions: c terminus: a fixed tail appended
Please enter fulfilled where protein stability index is greater than or equal to 4, and not fulfilled where it is lower.

residue_change=K24L qualitative_label="not fulfilled"
residue_change=Y1F qualitative_label="not fulfilled"
residue_change=S13A qualitative_label="not fulfilled"
residue_change=K5F qualitative_label="not fulfilled"
residue_change=V19A qualitative_label="not fulfilled"
residue_change=I4T qualitative_label="not fulfilled"
residue_change=F11T qualitative_label=fulfilled
residue_change=W16G qualitative_label=fulfilled
residue_change=Y9Q qualitative_label=fulfilled
residue_change=K5L qualitative_label="not fulfilled"
residue_change=K5D qualitative_label=fulfilled
residue_change=P21H qualitative_label="not fulfilled"
residue_change=D17T qualitative_label="not fulfilled"
residue_change=D10Q qualitative_label="not fulfilled"
residue_change=G7S qualitative_label="not fulfilled"
residue_change=W16Y qualitative_label="not fulfilled"
residue_change=P12S qualitative_label="not fulfilled"
residue_change=K24P qualitative_label="not fulfilled"
residue_change=A8R qualitative_label="not fulfilled"
